Where these numbers come from: PubChem BioAssay (EPA / NIEHS)

TEST SUMMARY: BSK_LPS_SRB: Viability Assessment in the BioMAP Diversity Plus: LPS Assay (AID 2283079);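 further: total protein by sulforhodamine B absorbance as a cytotoxicity measure; measured one day after compound addition; fitted in both directions against DMSO so loss or gain of signal counts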
PARTICULARS: primary human HUVEC with PBMC
Method: BSK_LPS is a cell-based, multiplexed-readout assay that uses umbilical vein endothelium and peripheral blood mononuclear cells, a human vascular primary cell co-culture, with measurements taken at 24 hours after chemical dosing in a 96-well plate.BSK_LPS_SRB is an assay component measured in the BSK_LPS assay. It measures 0.1% sulforhodamine related to cell death using Sulforhodamine staining technology.Data from the assay component BSK_LPS_SRB was analyzed into 1 assay endpoint. […]
Calls of active or inactive are those of the source. How the source made its calls: active means hit-call score of the fitted dose curve at least 0.9, where 1 is the maximum; inactive means score below 0.9.
Entry note: the call must match one of active, inactive

O=C1c2ccccc2C(=O)N1CCc1noc(-c2ccc(CN3CCCCCC3)s2)n1 ... inactive
Cc1cccc2ccccc12 ... inactive
COc1cccc([C@H](O)C2CCN(CCc3ccc(F)cc3)CC2)c1OC ... inactive
Cc1cn([C@H]2C[C@H](N=[N+]=[N-])[C@@H](CO)O2)c(=O)[nH]c1=O ... inactive
CCN(CC)C(=O)c1cc(S(=O)(=O)Cc2ccccc2)c(N2CCC(c3ccccc3)CC2)cc1N(CC)CCN(C)C ... active

Query block: Query: recorded result category for COCC(C)OCC(C)OCC(C)O (centres undefined) in this test
Result block: inactive

Query block: Query: recorded result category for CCCCCCCCCCCO in this test
Result block: inactive

Query block: Query: recorded result category for O=C1CCC(C2CCCCC2)CC1 in this test
Result block: inactive

Query block: Query: recorded result category for CC[C@H](NC(=O)c1cc(F)ccc1NS(=O)(=O)c1cccc2cccnc12)c1ccccc1 in this test
Result block: inactive

Query block: Query: recorded result category for O=c1c(-c2ccc(O)cc2)coc2cc(O)cc(O)c12 in this test
Result block: active

Query block: Query: recorded result category for CCOC(=O)O[C@H](C)OC(=O)c1ccc2c(c1)cc(C(=O)NC1CCN(C(C)C)CC1)n2Cc1cc(-c2ccc(Cl)s2)on1 in this test
Result block: active

Query block: Query: recorded result category for OC12N=C(c3ccccc3)SC1Cc1cc(Cl)ccc12 (centres undefined) in this test
Result block: inactive

Query block: Query: recorded result category for CCN(Cc1cccc(S(=O)(=O)O)c1)c1ccc(C(=C2C=CC(=[N+](CC)Cc3cccc(S(=O)(=O)O)c3)C=C2)c2ccccc2S(=O)(=O)[O-])cc1 in this test
Result block: inactive

Query block: Query: recorded result category for NC(=O)c1nc(-c2cccc(-c3cc(F)ccc3OCC(F)(F)C(F)(F)F)c2)n[nH]1 in this test
Result block: active

Query block: Query: recorded result category for CN1C(=O)N(c2ccccc2Br)Cc2cnc(Nc3ccc4c(c3)OCC(CO)O4)nc21 (centres undefined) in this test
Result block: active

Query block: Query: recorded result category for O=C1O[C@H]([C@@H](O)CO)C(O)=C1O in this test
Result block: inactive

Query block: Query: recorded result category for Cc1cc2c(cc1C(F)(F)F)N(C(=O)Nc1ccc(Oc3cccnc3C)nc1)CC2 in this test
Result block: inactive

Query block: Query: recorded result category for COc1ccc2cc(S(=O)(=O)N[C@H](CC(=O)N[C@H](Cc3ccc(CN4[C@H](C)CCC[C@@H]4C)cc3)C(=O)N(C)C(C)C)c3ccc4c(c3)OCO4)ccc2c1 in this test
Result block: active

Query block: Query: recorded result category for CC(C)(O)c1ccc(CNC(=O)c2cccnc2Oc2ccc3nonc3c2)cc1 in this test
Result block: inactive
